The entries below come with measured growth values attached.
tested on: KM12 colon; test: NCI-60 one-dose screen, 48 h (100 = growth as untreated, 0 = no growth, -100 = all killed); conditions: 10 µM unless noted
The panel holds about 83,000 compounds, 20% with a hit somewhere; the sample as a whole holds those more often.

molecule: COc1ccccc1NC(=O)C1CC(c2ccc(F)cc2)=NO1 (centres undefined)
growth / %: 101

molecule: NC1=NN=C(N)C1=Cc1cc2ccccc2n2nnnc12
growth / %: 105

molecule: C=C(C)[C@@H]1CC[C@]2(C(=O)N3CCN(C)CC3)CC[C@]3(C)[C@H](CC[C@@H]4[C@@]5(C)CC[C@H](O)C(C)(C)[C@@H]5CC[C@]43C)[C@@H]12
growth / %: -80.7

molecule: CC(C)c1ccc(Nc2ccc3c(OCCCN4CCN(C)CC4)cccc3n2)cc1
growth / %: 39.3

molecule: Cc1ccc(/C=N/NC(=O)CSc2nc3ccccc3c(=O)n2Cc2ccc(S(N)(=O)=O)cc2)cc1
growth / %: 86.3

molecule: CC(=O)c1cc2c(N)c(C(=O)Nc3cccc4ccncc34)sc2nc1C
growth / %: 101

molecule: COc1cc2oc(-c3cccc(C(=O)Nc4ccccc4)c3)cc(=O)c2c(O)c1OC
growth / %: 57.8

molecule: C=C1C(=O)O[C@H]2[C@H]1CC/C(CNC(=O)/C=C/c1ccccc1)=C\CC[C@@]1(C)O[C@@H]21
growth / %: 76.5

molecule: COc1cc2nc(-c3ccc(Cl)cc3)cc(OCCCN3CCOCC3)c2cc1OC
growth / %: 29.7

---

test system: OVCAR-3 ovarian; test: NCI-60 one-dose screen, 48 h; conditions: 10 µM unless noted
This is part of a sample that, as a whole, favours compounds with a hit. Of some 83,000 tested, about 20% had one in any assay. Active and inactive are the calls of the source. The calls were made as follows: active = growth percent below 10; inactive = the rest.
Possible outcomes: True for active, False for inactive

molecule: NS(=O)(=O)c1ccc(CCN2C(=O)C3C(C2=O)C2(Cl)C(Cl)=C(Cl)C3(Cl)C2(Cl)Cl)cc1 (stereo not drawn)
experimentalSystem: OVCAR-3 ovarian
assignedClass: False

molecule: CC1(C)CC[C@]23CC[C@]4(C)[C@H](CC[C@@H]5[C@@]6(C)CCCNC(C)(C)[C@@H]6CC[C@]54C)[C@H]2[C@H]1OC3
experimentalSystem: OVCAR-3 ovarian
assignedClass: True

molecule: Nc1c(C(=O)Nc2ccnc3ccccc23)sc2nc3c(cc12)CN(Cc1ccccc1)CC3
experimentalSystem: OVCAR-3 ovarian
assignedClass: False

molecule: CC(=O)OC[C@]12CC[C@@H](C(=O)CBr)[C@@H]1[C@H]1CC[C@@H]3[C@@]4(C)CC[C@H](OC(C)=O)C(C)(C)[C@@H]4CC[C@@]3(C)[C@]1(C)CC2
experimentalSystem: OVCAR-3 ovarian
assignedClass: False

molecule: O=C(CCN1CCCC1)Nc1ccc2c(NCCc3ccccc3)c3ccccc3nc2c1
experimentalSystem: OVCAR-3 ovarian
assignedClass: True

molecule: Cn1cc(CC2CC(=O)N(c3ccccc3)C2=O)sc1=NC(=O)c1ccccc1 (stereo not drawn)
experimentalSystem: OVCAR-3 ovarian
assignedClass: False

molecule: CCCOC(=O)N[C@H]1CCc2c(Cl)c(OC)c(OC)c(OC)c2-c2ccc(SC)c(=O)cc21
experimentalSystem: OVCAR-3 ovarian
assignedClass: True

molecule: COc1cc(/C=C/C(=O)c2nc3cc(F)ccc3nc2C)cc(OC)c1OC
experimentalSystem: OVCAR-3 ovarian
assignedClass: False

molecule: Cc1cc(Cl)nc(N(CCNc2ccnc3cc(Cl)ccc23)Cc2ccccn2)n1
experimentalSystem: OVCAR-3 ovarian
assignedClass: True

molecule: O=C(Nc1ccc(F)cc1)Nc1ccc(NC(=O)c2cc(Cl)nc3ccccc23)cc1
experimentalSystem: OVCAR-3 ovarian
assignedClass: False

molecule: Fc1ccc(-c2cn3c(nc4ccccc43)c(-c3ccccc3)n2)cc1
experimentalSystem: OVCAR-3 ovarian
assignedClass: False

molecule: CN1CCN(CCNc2nccc(-c3c(-c4cccc(O)c4)nc4sccn34)n2)S1(=O)=O
experimentalSystem: OVCAR-3 ovarian
assignedClass: False

molecule: CCOC(=O)[C@@H](C)C[C@H](Cc1ccccc1)NC(=O)c1csc([C@@H](C[C@H](C(C)C)N(C)C(=O)[C@@H](NC(=O)[C@H]2C[C@H](O[Si](C)(C)C(C)(C)C)CCN2C)C(C)C)OC(C)=O)n1
experimentalSystem: OVCAR-3 ovarian
assignedClass: True

molecule: COc1cccc2c1c1nc3cc(C)c(C)cc3nc1n2CCN(C)C
experimentalSystem: OVCAR-3 ovarian
assignedClass: False

molecule: COc1cc(CC(=O)c2ccc(O)c(OC)c2)ccc1O
experimentalSystem: OVCAR-3 ovarian
assignedClass: False

molecule: COc1ccc(/C=C2\COc3ccc(-c4ccccc4)cc3C2=O)c(OC)c1
experimentalSystem: OVCAR-3 ovarian
assignedClass: False

molecule: C[C@H]1[C@H](C)CC[C@]2(C(=O)NCC#CCN3CCN(C)CC3)CC[C@]3(C)C(=CC[C@@H]4[C@@]5(C)Cc6c([nH]c7ccccc67)C(C)(C)[C@@H]5CC[C@]43C)[C@H]12
experimentalSystem: OVCAR-3 ovarian
assignedClass: False

molecule: CCOC(=O)CSc1nc2ccccc2c(=O)n1Cc1ccc(S(N)(=O)=O)cc1
experimentalSystem: OVCAR-3 ovarian
assignedClass: False
